- protocol.details: NCI Yeast Anticancer Drug Screen. Data for the rad50 strain (AID 155);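 further: 0% = growth of vehicle-only cultures of the same strain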
- study.conditions: S. cerevisiae rad50 strain growth inhibition; at 50.0 µM; stronger effect = higher value
Compounds without any hit were thinned out: in the full panel of roughly 79,000, 15% have a hit.
endpoint.label: growth inhibition (%)
Write down the numeric answer in % and omit the unit.

Determine from records and report growth inhibition for O=C1NC(N2CCCCC2)=N/C1=C\c1cccs1 2.5

Determine from records and report growth inhibition for CCCCSCC(NC(=O)/C=C/c1c(C)[nH]c(=O)[nH]c1=O)C(=O)OC (stereo not given) 16.1

Determine from records and report growth inhibition for CCC(c1ccc(OCC(=O)N2CC2)cc1)C(CC)c1ccc(OCC(=O)N2CC2)cc1 (stereo not given) 11.8

Determine from records and report growth inhibition for Cc1ccc2c(c1)-c1c3c(nn1C)-c1ccccc1SC3O2 (stereo not given) -0.35

Determine from records and report growth inhibition for CC1(C)OC2OC(C3COS(=O)O3)C(Cl)C2O1 (stereo not given) -2

Determine from records and report growth inhibition for CC(C)(CC(O)C#N)/[N+]([O-])=[N+](\[O-])C(C)(C)CC(O)C#N (stereo not given) 3.75

Determine from records and report growth inhibition for Cc1ccc(S(=O)(=O)CC(=O)c2ccc(Br)cc2)cc1 -2.7

Determine from records and report growth inhibition for O=Nc1c(-c2ccccc2)nnc(-c2ccccc2)c1N=O -24.9

Determine from records and report growth inhibition for Cc1nc(C)c(C(=O)NNC(=O)Cc2ccccc2)cc1C(=O)NNC(=O)Cc1ccccc1 -32

Determine from records and report growth inhibition for CC1(C)OC2(C)CCC1C1C2N1C(=O)Nc1cccc2ccccc12 (stereo not given) -9

Determine from records and report growth inhibition for C=CCc1cc(C(C)=O)ccc1O 2.75

Determine from records and report growth inhibition for CCCCCCCC/C=C\CCCCCCCC(=O)OCC1CCCO1 (stereo not given) -6.8

Determine from records and report growth inhibition for CNCCC(=O)C1CCC(OC)CC1 (stereo not given) 26.2

Determine from records and report growth inhibition for O=C(O)c1ccc(N2C(=O)c3ccccc3C2=O)cc1 -19.1

Determine from records and report growth inhibition for N#CSc1nc[nH]c1C(N)=O -38.2

Determine from records and report growth inhibition for COc1ccc2c(CCn3ccccc3=O)cccc2c1 -13.3

Determine from records and report growth inhibition for CCNC(=O)C(C(=O)OC)c1ccccc1 (stereo not given) 3.7

Determine from records and report growth inhibition for CCC1([N+](=O)[O-])COC2(CCCCC2)OC1 6.95

Determine from records and report growth inhibition for CCCCCSc1nc2c([nH]1)c(=O)n(C)c(=S)n2C 14.5

Determine from records and report growth inhibition for Cc1nn(C(=O)c2ccc(Cl)cc2)c2c1C(c1ccccc1[N+](=O)[O-])SC(N)=N2 (stereo not given) -9.6

Determine from records and report growth inhibition for CCOC(=O)C(=O)c1c(C)[nH]c(C)c1C(=O)OCC -2.15

Determine from records and report growth inhibition for C/C(=N/O)c1ccc(C(F)(F)F)cc1 -5.25

Determine from records and report growth inhibition for COC(=O)CSc1[nH]c2nc(C)nc(Nc3ccccc3)c2c1C#N -13.8

Determine from records and report growth inhibition for CS(C)=O.CS(C)=O.[Cl][Ru+2][Cl].[NH-]c1ccccc1[NH-] 38.6

Determine from records and report growth inhibition for CC(=O)OCC1OC2OC(C)(C)OC2C1NC(=O)C(F)(F)F (stereo not given) 16.5

* * *

Could you please report measured growth inhibition for the items listed next?
- protocol.details: NCI Yeast Anticancer Drug Screen. Data for the bub3 strain (AID 167)
- study.conditions: S. cerevisiae bub3 mutant strain, at 50.0 µM, stronger effect = higher value
About 79,000 compounds went through this panel and 15% of them were active in at least one assay; those are over-represented in the sample as a whole.
Write down the numeric answer in % and omit the unit.

Determine from records and report growth inhibition for Clc1ccc(CSc2cnnc(Cl)c2SCc2ccc(Cl)cc2)cc1 -2.15

Determine from records and report growth inhibition for CN(CCCN)CCCN -28.6

Determine from records and report growth inhibition for Cn1c(N)cc(=O)nc1N -1

Determine from records and report growth inhibition for CCOC(=O)C(CC1OCCO1)C1=NC(C)(C)CC(C)O1 (configuration not stated) -7

Determine from records and report growth inhibition for CC(C)CC(N)C(=O)OCN1C(=O)C2C3C=CC(C2C1=O)C1C2C(=O)N(COC(=O)C(N)CC(C)C)C(=O)C2C31 (configuration not stated) -0.05

Determine from records and report growth inhibition for O=C(O)C(CCc1cccc(Cl)c1)C(=O)O 4.35

Determine from records and report growth inhibition for OCc1ccccc1CO -3.75

* * *

Could you please report measured growth inhibition for the items listed next?
- protocol.details: NCI Yeast Anticancer Drug Screen. Data for the cln2 rad14 strain (AID 165);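 further: 0% = growth equal to vehicle treated cultures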
- study.conditions: S. cerevisiae cln2 rad14 strain, at 50.0 µM, stronger effect = higher value
Compounds without any hit were thinned out: in the full panel of roughly 79,000, 15% have a hit.
Write down the numeric answer in % and omit the unit.

Determine from records and report growth inhibition for CC(=O)N(C(C)=O)n1c(Cc2ccc(Cl)cc2)n[nH]c1=O -5.55

Determine from records and report growth inhibition for Oc1ccc(C2CCCC2)cc1 -14.7

Determine from records and report growth inhibition for COc1nc(N=P(c2ccccc2)(c2ccccc2)c2ccccc2)cc(=O)[nH]1 27.7

Determine from records and report growth inhibition for CCN(CC)C(=O)c1cccc2c1OCO2 0.25

Determine from records and report growth inhibition for [CH3][Sn]([CH3])([O]C(=O)c1ccc2c(c1)OCO2)[O]C(=O)c1ccc2c(c1)OCO2 -12.7

Determine from records and report growth inhibition for CC(=O)N1c2ccccc2C2(C)CCCC(O)C12O (stereo unspecified) 1.9

Determine from records and report growth inhibition for N=C(N)SCCCN 2.95

Determine from records and report growth inhibition for O=C(NCCCN1CC2CCCC2C1)C(c1ccccc1)c1ccccc1 (stereo unspecified) -5.3

Determine from records and report growth inhibition for COc1ccc(S(=O)(=O)N/N=C/c2cccc([N+](=O)[O-])c2O)cc1 2

Determine from records and report growth inhibition for CC(COc1ccccc1)OC=O (stereo unspecified) -24.4

Determine from records and report growth inhibition for C=C(C(C)C)C1CC1 3.5

Determine from records and report growth inhibition for CCc1cc2c(cc1/C(C)=N/N=C(\C)c1cc3c(cc1CC)C(C)(C)CCC3(C)C)C(C)(C)CCC2(C)C -30.6

Determine from records and report growth inhibition for ON=C(c1ccccc1)c1ccccc1 -7.2

Determine from records and report growth inhibition for O=C(O)C(Cc1cccs1)C(=O)OCCc1ccccc1 (stereo unspecified) -10.8

Determine from records and report growth inhibition for CC(C)c1ccccc1NC(=O)C(=O)Cc1nc2ccccc2s1 -36.1

Determine from records and report growth inhibition for N#Cc1ccc(OCCCCOc2ccc([N+](=O)[O-])cc2Cl)cc1 -3.8

Determine from records and report growth inhibition for Cc1cc(=O)[nH]c(NNC(=S)NC2CCCCC2)n1 2.85

Determine from records and report growth inhibition for CCCCN(CCCC)C(C)=O -35

Determine from records and report growth inhibition for O=C1C=CC(=CC=C2C=CN(CCCCCCO)C=C2)C=C1 13.8

Determine from records and report growth inhibition for COc1ccc2c(c1)C1Oc3ccccc3CC1(O)CO2 (stereo unspecified) 26.5

Determine from records and report growth inhibition for c1ccc(CCc2ccncc2)cc1 -26.5

Determine from records and report growth inhibition for CSC(SC)=C(C(=O)c1ccc(Cl)cc1)n1c(=O)sc2cc(Br)ccc21 0.25

Determine from records and report growth inhibition for COc1cc(OC)c(NC2=CC(c3ccc(Cl)cc3)OC2=O)cc1Cl (stereo unspecified) -3.6

Determine from records and report growth inhibition for O=C(O)c1cocc1C(=O)O -14.8

Determine from records and report growth inhibition for NC(=O)c1cc(Br)ccc1O 8.9

Determine from records and report growth inhibition for C=CCn1c(=O)n(CC=C)c(=O)n(CC=C)c1=O -26.6

* * *

Could you please report measured growth inhibition for the items listed next?
- protocol.details: NCI Yeast Anticancer Drug Screen. Data for the sgs1 mgt1 strain (AID 161);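 further: 0% = growth of cultures given vehicle only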
- study.conditions: S. cerevisiae sgs1 mgt1 strain, at 50.0 µM, stronger effect = higher value
About 79,000 compounds went through this panel and 15% of them were active in at least one assay; those are over-represented in the sample as a whole.
Write down the numeric answer in % and omit the unit.

Determine from records and report growth inhibition for CCN(CC)CCOC(=O)c1ccc(N=Nc2cc(NC(C)=O)ccc2O)cc1 -0.7

Determine from records and report growth inhibition for Cc1ccc(C2=CSc3ccccc3N2)cc1 45.6

Determine from records and report growth inhibition for CCCCCC/C(C=O)=C\c1ccccc1 26.6

Determine from records and report growth inhibition for Cc1cc(Cl)c(Cl)cc1NC(=O)c1ccc(Cl)cc1Cl 1.25

Determine from records and report growth inhibition for C[Si](C)(C)Oc1cc(N=NNC2=CC(=O)c3ccccc3C2=O)c(O)c2ccccc12 -11.8

Determine from records and report growth inhibition for Cn1c2nc(=O)n(-c3ccccc3)c(=O)c-2nc2c1CCCC2 1.55

Determine from records and report growth inhibition for CC(C)C(C)NC(=O)C(C)(C)C(C)(C)C (configuration not stated) 10.6

Determine from records and report growth inhibition for c1ccc(OCCSCCCCCCCCCCSCCOc2ccccc2)cc1 -25.6

Determine from records and report growth inhibition for CC1CCC(NC(=O)NCCCl)c2ccccc21 (configuration not stated) -1.8

Determine from records and report growth inhibition for COC(=O)c1cc(C(=O)OC)c(CC(=O)C(=O)Nc2ccc(Cl)c(C(F)(F)F)c2)nc1CC(=O)C(=O)Nc1ccc(Cl)c(C(F)(F)F)c1 -30.9

Determine from records and report growth inhibition for O.O.[Cu+2].[Cu+2].[NH-]CCC(=O)[N-]C(Cc1cnc[nH]1)C(=O)O.[NH-]CCC(=O)[N-]C(Cc1cnc[nH]1)C(=O)O (configuration not stated) 0.95

Determine from records and report growth inhibition for CCOC(=O)C(CC1OCCO1)C1=NC(C)(C)CC(C)O1 (configuration not stated) -11.4

Determine from records and report growth inhibition for Nc1ccc2ccccc2c1C(=O)c1ccccc1 -15.2

Determine from records and report growth inhibition for O=C=Nc1ccc(Cl)c(Cl)c1 -43

Determine from records and report growth inhibition for CCNC(=O)NS(=O)(=O)c1ccc(Sc2ccc(C)cc2)nc1 -1.1

Determine from records and report growth inhibition for CC(C)(C)C(=O)CC(=O)C(F)(F)C(F)(F)C(F)(F)F.CC(C)(C)C(=O)CC(=O)C(F)(F)C(F)(F)C(F)(F)F.CC(C)(C)C(=O)CC(=O)C(F)(F)C(F)(F)C(F)(F)F.[Eu] 21.2

Determine from records and report growth inhibition for CC(=O)Nc1cc2c(cc1Br)Cc1cc(Br)ccc1-2 -8.2

Determine from records and report growth inhibition for CC1=CC(=O)C(CN(C)C)(CN(C)C)C(C)(C)C1 7.65

Determine from records and report growth inhibition for O=c1oc2c(CN3CCOCC3)c(O)ccc2c2c1CCCC2 22.8

Determine from records and report growth inhibition for CC1(C)OC12C=CC1C2C2CCC1C21OC1(C)C (configuration not stated) -2.85

Determine from records and report growth inhibition for CCOC(=O)C1(C(=O)OCC)CC(CCC#N)(CCC#N)C(=O)C(CCC#N)(CCC#N)C1 1.55

Determine from records and report growth inhibition for Cc1nc2ccc(S(=O)(=O)Nc3ccccn3)cc2c(=O)n1NS(=O)(=O)c1ccccn1 12

Where these numbers come from: PubChem BioAssay (NCI)
